System: Arabidopsis thaliana Col-0
Method Summary: Germination rate and phytotoxicity
Type: in vivo
Assay Context: 10 µM; 5 DPS
Quantity Measured: average fraction of germinated seeds

Some entries whose results are on file:
What does the record list as average fraction of germinated seeds for CCCOc1cccc(-c2ccc3[nH]ccc3c2)c1 [i-12] ?
0.93

Bench note: what average fraction of germinated seeds did FC(F)(F)Oc1ccc(-c2ccc3[nH]ccc3c2)cc1 [i-21] show?
1.00

I'd like to know its average fraction of germinated seeds. The compound in question is Fc1ccc(-c2ccc3[nH]ccc3c2)cc1 [i-20]
0.91

Okay, now this compound:
May I ask what average fraction of germinated seeds has been recorded for CC(C)Oc1cc(-c2ccc3[nH]ccc3c2)ccc1Cl [i-27] ?
0.98

Values from paper PMC12766724
